Experimental system: T1, human pro-myostatin (human, UniProt O14793 24-375, biotinylated (in the SPR assay))
T1 construct: Disulfide-linked homodimer; also called proGDF8 (human)
Assay info: Ab KD, summary Table 11; method and antigen not stated there
Measurement type: pKd
Would you please state pKd, meaning minus log10 of the concentration in mol/L, as a bare number?

Requested field: pKd. Item: Ab133 (antibody, human IgG4 S228P, kappa, V domains shown, human IgG4 in the EM experiment; also called Ab133 Human IgG4) VH: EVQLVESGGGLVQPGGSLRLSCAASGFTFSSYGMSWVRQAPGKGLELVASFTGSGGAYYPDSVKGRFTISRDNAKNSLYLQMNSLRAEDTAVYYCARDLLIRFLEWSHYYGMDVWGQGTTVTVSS VL: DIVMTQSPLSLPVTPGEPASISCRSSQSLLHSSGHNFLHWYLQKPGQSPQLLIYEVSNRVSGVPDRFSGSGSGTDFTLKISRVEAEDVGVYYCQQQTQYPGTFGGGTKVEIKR
10.39

Requested field: pKd. Item: Ab102 (antibody, human IgG4 S228P, kappa, V domains shown) VH: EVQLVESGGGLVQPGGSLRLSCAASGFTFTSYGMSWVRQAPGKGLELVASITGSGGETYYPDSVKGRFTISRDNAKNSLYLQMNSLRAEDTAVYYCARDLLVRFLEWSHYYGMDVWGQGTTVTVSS VL: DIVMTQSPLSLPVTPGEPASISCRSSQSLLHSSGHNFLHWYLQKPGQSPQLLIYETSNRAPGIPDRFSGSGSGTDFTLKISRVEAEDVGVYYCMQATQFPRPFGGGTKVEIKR
9.48

Requested field: pKd. Item: Ab141 (antibody, human IgG4 S228P, kappa, V domains shown) VH: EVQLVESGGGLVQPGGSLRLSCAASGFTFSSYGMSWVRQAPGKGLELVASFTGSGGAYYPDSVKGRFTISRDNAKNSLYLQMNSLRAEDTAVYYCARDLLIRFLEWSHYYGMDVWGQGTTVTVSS VL: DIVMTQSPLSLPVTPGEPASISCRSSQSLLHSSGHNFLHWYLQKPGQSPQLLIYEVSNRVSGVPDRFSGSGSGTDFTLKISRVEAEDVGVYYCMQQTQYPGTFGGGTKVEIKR
10.40
